Tested on: COLO 205
EXPERIMENT SUMMARY: NCI tumour cell line growth inhibition, 48 h
Structures can show the parent of a compound that is named as a salt. Activity calls are given as the source filed them. No stated cut-off is given here; in the data, active = GI50 up to about 1.1 µM and inactive = higher.
# valid calls are 1 (yes) (active), 0 (no) (inactive); nothing else

O=C(O)c1cc2ccccc2c(/N=N/c2ccc(S(=O)(=O)O)cc2)c1O: 0 (no)
CCOC(=O)N1N=C(/C(C)=N/OC)C(C)[S+]1[O-] (stereo not given): 0 (no)
COc1ccccc1C(=O)N(C)c1ccc(Cl)c(C(=O)OC(C)C)c1: 0 (no)
Cc1ccc(Nc2nc3ccccc3c(=O)n2N)cc1: 0 (no)

Assay outcome for CC1(C)COC(c2cccc(C3=NC(C)(C)CO3)c2Br)=N1 : what was it?
0 (no)

Just curious, what result did COc1ccc(CSCc2cc(OC)c(OC)c(OC)c2)cc1 get here?
0 (no)

Entry CSC1=C(C#N)C(=S)N=C(N)C1C(=O)Nc1ccc(C)cc1 (stereo not given) : call = ?
0 (no)

Please indicate how the test categorized CC(=O)c1c(-c2ccco2)c(C#N)c(=S)n(C2OC(CO)C(O)C(O)C2O)c1-c1ccccc1 (stereo not given) .
0 (no)

Hey, what did the test say about O=C(O)C1CCCCC1C(=O)Nc1nc2ccccc2[nH]1 (stereo not given) ?
0 (no)

Hey, what did the test say about CC(=O)Oc1ccc2c(c1)Oc1cc(C(C)=O)ccc1C21OC(=O)c2ccccc21 (stereo not given) ?
0 (no)

Per the assay record, what outcome was assigned to C=C1CC2(C)CCC(OC(=O)C3(C)OC3C)C(C)(OC(C)=O)C2CC1=C(C)C (stereo not given) ?
0 (no)

Per the assay record, what outcome was assigned to c1ccc(CN2CCN3CCN(CC2)CCN(Cc2ccccc2)CC3)cc1 ?
0 (no)

Check the results log: what was the call for CCCCCCc1cc2cc(C(=O)Nc3cccc(F)c3)c(=N)oc2cc1O ?
0 (no)

Please share the test call associated with CC[C@]1(O)C[C@H]2CN(CCc3c([nH]c4ccccc34)[C@@](C(=O)OC)(c3cc4c(cc3OC)N(C=O)[C@H]3[C@@](O)(C(=O)OC)[C@H](OC(C)=O)[C@]5(CC)C=CCN6CC[C@]43[C@@H]65)C2)C1 [VINCRISTINE SULFATE] .
1 (yes)

Tell me the recorded outcome of this test for CCOc1ccc(N/C(Cl)=C(Cl)\C(=C(\Nc2ccc(OCC)cc2)n2nnc3ccccc32)[N+](=O)[O-])cc1 .
0 (no)

Call for entry OCC1C(O)C(O)[C@@H]2SCCN12 (stereo not given in full) :
0 (no)

What call does the record list for CC(=O)O[C@H]1CSC[C@@H](OC(C)=O)C1[N+](=O)[O-] (stereo not given in full) ?
0 (no)

Lab log entry: Nn1c(CCCCCCCCc2nnc(COc3ccccc3)n2N)nnc1COc1ccccc1 — outcome as called in the assay?
0 (no)

Hi, sorry to bother you, what did the test record for OC(c1cc2ccccc2[nH]1)C(O)(c1cc2ccccc2[nH]1)c1cc2ccccc2[nH]1 (stereo not given) ?
0 (no)

Hello, I am checking results. What call was entered for CCCCOc1c(C(=O)O)cc(Br)cc1C(=O)O ?
0 (no)

====

System: SK-OV-3
EXPERIMENT SUMMARY: NCI tumour cell line growth inhibition, 48 h
Activity calls are given as the source filed them. Cut-off read from the data, not from the text of the source: active = GI50 up to about 1.1 µM and inactive = higher.
READOUT NAME: GI50

Below: 2 molecules and their reported GI50.
CC1(C)CN(c2ccccc2)C(=O)C1OC(=O)[C@@]1(C)C[C@@H]2C=C[C@H]1C2 (stereo not given in full): 35.1 µM (inactive)
O=C(N/C(=C\c1ccccc1[N+](=O)[O-])c1nc2ccccc2[nH]1)c1ccccc1: > 100 µM (inactive)

Please turn your attention to the following entry.
Field: GI50 (SK-OV-3). Entry: Nc1nc2[nH]cnc2c(=S)[nH]1
0.548 µM (active)

====

System: SK-MEL-2
EXPERIMENT SUMMARY: NCI tumour cell line growth inhibition, 48 h
Active and inactive are the calls of the source. Cut-off read from the data, not from the text of the source: active = GI50 up to about 1.1 µM and inactive = higher.
READOUT NAME: GI50

# example entries with known answers
Clc1ccccc1C(n1cc(Br)cn1)n1cc(Br)cn1: 18.2 µM (inactive)
COc1cc2cc(C(=O)N3CC(COS(C)(=O)=O)c4c3cc([N+](=O)[O-])c3ccccc43)[nH]c2c(OC)c1OC (stereo not drawn): 7.71 µM (inactive)
Cc1occc1C(=S)Nc1ccc(Cl)c(/C=N/OC(C)(C)C)c1: 17.9 µM (inactive)
COC(=O)C1C(=O)CC2CCCCC21 (stereo not drawn): > 100 µM (inactive)
Cc1cccc(NC(=O)CC#N)c1Cl: > 100 µM (inactive)
O=C(O)/C(=C/c1ccccc1)c1ccccc1: > 100 µM (inactive)

What value of GI50 on SK-MEL-2 does CCN(CC)CCOc1ccc(C(=C2CCCCC2)c2ccc(OCCN(CC)CC)cc2)cc1 have?
1.93 µM (inactive)

Form entry - test system: SK-MEL-2; read-out: GI50; compound: CCOC(=O)/C(C(=O)Nc1cccc(Cl)c1)=C(/N)N1CCOCC1
> 100 µM (inactive)

Request: GI50, test system SK-MEL-2, entry C/C(Nc1ccc(Cl)cc1)=C1/CCOC1=O
12.7 µM (inactive)

I'm curious: which GI50 was measured for O=C1c2ccc3c4ccccc4n(-c4ccccc4)c3c2C(=O)N1c1ccc(Cl)cc1 tested on SK-MEL-2?
> 100 µM (inactive)

Given the entry N=C(NC(=S)N1CCCCC1)N1CCCCC1 , what GI50 was observed with SK-MEL-2?
> 100 µM (inactive)

Form field: GI50 recorded for CC(Sc1ccccc1)C(CO)(CO)[N+](=O)[O-] (stereo not drawn) with SK-MEL-2 (enter value)
18.2 µM (inactive)

Lab request: please report GI50 under test system SK-MEL-2 for Clc1ccccc1CN1COc2c(ccc3cccnc23)C1
1.72 µM (inactive)

# value lookup — system SK-MEL-2, readout GI50, item Cc1ccc(S(=O)(=O)n2cc(C=O)c(-c3cn(S(=O)(=O)c4ccc(C)cc4)cc3-c3cn(S(=O)(=O)c4ccc(C)cc4)cc3C=O)c2)cc1
33.8 µM (inactive)

Which measured GI50 belongs to Nc1nc(Cl)c(N)c(NCC2(CO)CC2)n1 , tested on SK-MEL-2?
> 100 µM (inactive)

Hello, I am looking for reported GI50 with SK-MEL-2 for CCN1c2ccccc2-n2c(C)nnc2-c2c(-c3ccccc3)n[nH]c21 . Could you help?
19.7 µM (inactive)

====

Tested on: 786-0
EXPERIMENT SUMMARY: NCI tumour cell line growth inhibition, 48 h
Activity calls are given as the source filed them. No stated cut-off is given here; in the data, active = GI50 up to about 1.1 µM and inactive = higher.
READOUT NAME: GI50

CC(C)c1ccc(/C=C2\CSCC3=C2N=C2SCC(=O)N2C3c2ccc(C(C)C)cc2)cc1 (centres undefined): > 100 µM (inactive)
COC(=O)[C@H]1[C@@H](C(C)C)O[C@@H](C(C)C)O[C@H]1C(F)(F)F: > 100 µM (inactive)
CC(=O)OC1CC[C@@]2(C)C(CC[C@]3(C)C2CC=C2[C@@H]4CC(C)(C)CCC4(C)CCC23C)[C@@]1(C)C(=O)O (some centres undefined): 17.6 µM (inactive)
N#CCCC[Si]12OCCN(CCO1)CCO2: > 100 µM (inactive)
N=C1OC(c2cccc(Cl)c2)C(NNS(=O)(=O)c2ccccc2)=C1O (centres undefined): 24.8 µM (inactive)
CN(C)P(=O)(Oc1occc1C(O)Cc1ccccc1)N(C)C (centres undefined): > 100 µM (inactive)
Cc1ccc(S(=O)(=O)n2cc(C=O)c(-c3cn(S(=O)(=O)c4ccc(C)cc4)cc3-c3cn(S(=O)(=O)c4ccc(C)cc4)cc3C=O)c2)cc1: 35.8 µM (inactive)
CCCCCCCCCCCCCCCCCCOCC(O)COP(=O)(O)OCC1OC(n2ccc(N)nc2=O)C(O)C1O (centres undefined): 10.9 µM (inactive)

What measured GI50 goes with COc1cc(C23OCC(Cc4cc5c(cc42)OCO5)C3CO)cc(OC)c1OC (centres undefined) ?
3.09 µM (inactive)

Given CCNc1nnc(-c2ccccc2Nc2ccccc2-c2nnc(NCC)s2)s1 , state its recorded GI50.
11 µM (inactive)

State the recorded GI50 for this entry: COc1cc(C=O)cc(/C=N/n2c3ccccc3c3ccccc32)c1O
11.9 µM (inactive)

Query: GI50; subject: N=C(N)SCc1ccc(N=C=S)cc1
13.8 µM (inactive)

Reported GI50 for CN(C)CCNC(=O)c1cccc2ncc(-c3ccccc3)nc12 : what is it?
10 µM (inactive)

What does the data say about its GI50? Entry: COc1cc2cccc(N)c2cc1OC
> 100 µM (inactive)

====

Test system: MCF7
EXPERIMENT SUMMARY: NCI tumour cell line growth inhibition, 48 h
Activity calls are given as the source filed them. Cut-off read from the data, not from the text of the source: active = GI50 up to about 1.1 µM and inactive = higher.
Respond using exactly one of the listed classes: label 1 = active, label 0 = inactive

Reference set (4 entries):
CC1=C[C@@H](C)C[C@]2(C)CC[C@H](O2)[C@]23CC[C@](CO)(C[C@H](O2)[C@@H]2O[C@@](C)(CC2=O)[C@@H](O)[C@H]2CC[C@@]4(CCC[C@@H](O4)[C@H](C)C(=O)O[C@H]4C[C@H]([C@]5(O)OCC[C@H](C)[C@@H]5O)O[C@H]4C=C1)O2)O3: label 0
CC(C)c1ccc(/C=C2\CSCC3=C2N=C2SCC(=O)N2C3c2ccc(C(C)C)cc2)cc1 (centres undefined): label 0
CCCCCCCCCCCCCCCCCCOCC(O)COP(=O)(O)OCC1OC(n2ccc(N)nc2=O)C(O)C1O (centres undefined): label 0
N#CCN1CCN(CC#N)CCN(CC#N)CCN(CC#N)CC1: label 0

In this assay, the call recorded for CN(C(=O)CCC(=O)O)c1ccccc1C(=O)O was what?
label 0

// outcome(item) with item = O=C1C2C(C(=O)N1c1ccccc1)C1(c3ccccc3)CCC2(C(=O)c2ccccc2)O1 (centres undefined)
label 0

State the result this test recorded for O=C1C=C(NCC(c2ccccc2)c2ccccc2)C(=O)c2ncccc21 .
label 0

Returns: the outcome recorded for CN(C)CCCNC(=O)c1cc(NC(=O)c2cc(NC(=O)c3cc(NC(=O)CCCn4ccc(CO)c4CO)cn3C)cn2C)cn1C in this assay.
label 0

Outcome? Cc1c(C)c2ccc(OCC(O)COC(C)C)c(C)c2oc1=O (centres undefined)
label 0

// outcome(item) with item = C/C(=N\NC(=O)Nc1ccccc1Cl)c1ccc(O)cc1
label 0

Call for entry Nc1cccc(/C=C/C(=O)N2CCN(CCOC(c3ccccc3)c3ccccc3)CC2)c1 :
label 0

Write down the call the test reported for this molecule. Item: CSC1NNC2(C(=O)N1)c1ccccc1-c1ccccc12 (centres undefined)
label 0

The measurements presented in this section are drawn from ChEMBL document CHEMBL1201862.
